assay: H69AR cell proliferation blockers – human, duplicate replicates, primary screen (AID 580); settings: H69AR lung tumor cells viability, ATP luminescence, 72 h; at 10 µM; stronger effect = lower value;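 also: 100% = mean luminescence of untreated wells and 0% = no signal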
Calls of active or inactive are those of the source.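 The calls were made as follows: active = viability at or under a set limit in both replicates, limit being median viability minus 3 SD (cut at about 48% in these data, passing the limit was not always enough); inconclusive = at or under the limit in just one replicate; inactive = at or above the limit in both replicates.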
assay-metric: viability

* O=C(CCCOc1ccc(Cl)cc1Cl)N1CCC2(CC1)OCCO2 | 92.5% (inactive)
* O=C(CN1CCN(Cc2cccc(Cl)c2)C1=O)N1CCC2(CC1)OCCO2 | 89.5% (inactive)
* CC1(C)CC(=O)C=C(NCCN2CCN(C(=O)Cc3ccc(Cl)cc3)CC2)C1 | 92.4% (inactive)

* * *

experiment: viability of HCT116 without oncogenic beta-catenin – human colon tumor cells, pilot screen (AID 823); conditions: HCT116 beta-catenin knockout viability, CellTiter-Glo, 60 h; at 10 µM; stronger effect = lower value;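 also: 0% = wells killed by 20 µM Hyamine and 100% = untreated DMSO cell wells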
Results filed as inconclusive are left out. Active and inactive are the calls of the source.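 The calls were made as follows: active = cell viability at or below a set limit in both duplicate runs, the limit being the all-compound median minus 4 SD (cut at about 23% in these data, passing the limit was not always enough); inconclusive = no clear call, values can overlap the other calls; inactive = the rest.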
Here the recorded viability is given for each entry.
assay-metric: viability

- Nc1ccccc1C(=O)c1ccccc1: 90.9% (inactive)
- CN1CC=C(c2c[nH]c3ccccc23)CC1: 92% (inactive)
- Cc1cc(C)n2c(Br)c(CN3CC4CC(C3)c3cccc(=O)n3C4)nc2n1 (configuration not stated): 90.9% (inactive)
- O=c1c2ccccc2nc(-c2ccco2)n1-c1ccncc1: 91.8% (inactive)
- C=Cn1ccnc1P(=S)(c1nccn1C=C)C1CCCCC1: 92.3% (inactive)
- Cc1ccnc(-n2c(C)nc3ccccc3c2=O)c1: 90.8% (inactive)
- CCC(=O)N1CC(=O)Nc2ccc(F)cc2C1c1ccccc1 (configuration not stated): 92.2% (inactive)

* * *

molecular target: Pantothenate synthetase (Mycobacterium tuberculosis (strain ATCC 25618 / H37Rv)) (UniProt P9WIL5); test: Coupled enzyme confirmation of inhibitors against recombinant Mtb PanC (AID 375); conditions: coupled enzyme assay; at 10 µM, stronger effect = higher value;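 also: 0% = full reaction with vehicle and 100% = no enzyme background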
Sequence (P9WIL5 whole entry, looked up): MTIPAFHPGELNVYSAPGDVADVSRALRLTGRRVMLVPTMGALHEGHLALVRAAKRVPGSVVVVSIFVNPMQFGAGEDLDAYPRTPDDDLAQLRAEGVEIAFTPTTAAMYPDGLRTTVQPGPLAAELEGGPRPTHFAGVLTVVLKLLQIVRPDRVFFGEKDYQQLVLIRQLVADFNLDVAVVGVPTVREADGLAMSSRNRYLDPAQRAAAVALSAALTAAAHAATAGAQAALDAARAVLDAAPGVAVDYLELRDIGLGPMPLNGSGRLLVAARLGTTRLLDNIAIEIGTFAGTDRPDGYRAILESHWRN
assay-metric: inhibition (%)

- CC1=NC(Nc2nc(C)c3ccccc3n2)=NC(C)(C)C1: 0
- COc1ccc(CNS(=O)(=O)c2ccc3oc(C(=O)O)c(C)c3c2)cc1: 0
- COc1ccccc1OCC(=O)Nc1cccc(-c2nc3ccccc3o2)c1: 0

* * *

molecular target: Pantothenate synthetase (Mycobacterium tuberculosis (strain ATCC 25618 / H37Rv)) (UniProt P9WIL5); test: Coupled enzyme confirmation of inhibitors against recombinant Mtb PanC (AID 375); settings: coupled enzyme assay; at 10 µM, stronger effect = higher value;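 also: 0% = full reaction with vehicle and 100% = no enzyme background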
Entries and their measured inhibition follow.
assay-metric: inhibition (%)

• CC(C)CCn1c(=O)c2ccccc2n2c(CN(C)Cc3ccccc3)nnc12 = 0
• Cc1cc(S(=O)(=O)N2CCN(c3ncccn3)CC2)ccc1-n1cnnn1 = 1
• COCCNS(=O)(=O)c1cc(F)ccc1OC = 0
• CCC1C(=O)n2nc(-c3ccccc3)cc2N=C1C (centres undefined) = 0
• COc1ccc(CCNc2nc(N3CCOCC3)nc(N3CCOCC3)n2)cc1OC = 0
• CC1CN(C(=O)CSc2nnc(-c3ccc(Cl)cc3)n2C)CC(C)O1 (centres undefined) = 0
• O=C(NCCC1=CCCCC1)C1CCN(S(=O)(=O)c2cccc3nsnc23)CC1 = 10
• Cc1ccc(OCC(O)Cn2c(=N)n(CCN3CCCCC3)c3ccccc32)cc1 (centres undefined) = 0
• COc1cccc(CNC(=O)CCn2c(=O)oc3ccccc32)c1 = 0

* * *

inhibition reference
target: Pantothenate synthetase (Mycobacterium tuberculosis (strain ATCC 25618 / H37Rv)) (UniProt P9WIL5); experiment: Coupled enzyme confirmation of inhibitors against recombinant Mtb PanC (AID 375); details: coupled enzyme assay; at 10 µM, stronger effect = higher value;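 also: 0% = full reaction with vehicle and 100% = no enzyme background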
assay-metric: inhibition (%)

- CN(C)c1nc(N)nc(CSc2nnnn2-c2cccc3ccccc23)n1: 0
- CS(=O)(=O)NCc1ccc(C(=O)NCc2ccccc2)cc1: 4
- O=C1c2ccccc2C(Nc2ccc(-c3nc4ccccc4[nH]3)cc2)N1Cc1ccco1 (stereo unspecified): 5
- CCC1(CC)NC(=O)NC1=O: 0
- CCCC(=O)Nc1cc(C)c2c(=O)oc3ccccc3c2n1: 2
- Cc1cc(C(=O)NCCN2CCN(c3cccc(Cl)c3)CC2)n(-c2ccccc2)n1: 0

* * *

target: Pantothenate synthetase (Mycobacterium tuberculosis (strain ATCC 25618 / H37Rv)); experiment: Coupled enzyme confirmation of inhibitors against recombinant Mtb PanC (AID 375); details: coupled enzyme assay; at 10 µM, stronger effect = higher value;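 also: 0% = full reaction with vehicle and 100% = no enzyme background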
assay-metric: inhibition (%)

- CCn1c(SCC(=O)Nc2ccc(C(=O)OC)cc2)nnc1-c1cccs1: 3
- CC(=O)c1c(C)nn(CC(O)COc2ccc3c(c2)CCC3)c1C (stereo not given): 0
- CNCC(O)c1ccc(O)cc1 (stereo not given): 0
- COCCCN1C(=O)C(=O)/C(=C(/O)c2ccc(OCC(C)C)cc2C)C1c1cccnc1 (stereo not given): 0
- CCOc1ccccc1N1C(=O)c2ccc(C(=O)Nc3cccnc3)cc2C1=O: 4
- COc1ccc(N2C(=O)C3CCCN3C2c2ccc(F)cc2)cc1Cl (stereo not given): 1
- O=C(Cn1cnc2c(cnn2-c2ccc(F)cc2)c1=O)N1CCN(c2ccccc2)CC1: 0
- CCN1C(=O)NC(c2cc(Br)ccc2OC)C(C(=O)OC)=C1C (stereo not given): 0
- CCOC(=O)N1CCC(NC(=O)CS(=O)(=O)Cc2nc(-c3ccccc3C)oc2C)CC1: 3
- CCn1c(SCC(=O)N2CCN(c3ccc(Cl)cc3)CC2)nc2ccccc2c1=O: 0
- Cc1ccccc1NC(=O)N1C2CCCC1CC(NC(=O)C1CC1)C2 (stereo not given): 14
- CCOc1ccc(N2CC(C(=O)NCCc3ccc(OC)c(OC)c3)CC2=O)cc1 (stereo not given): 0
- O=C(NCCN1CCCCCC1)c1ccc(CS(=O)(=O)c2ccc(Br)cc2)o1: 0
- O=C(CSc1ccc(-c2ccccc2)nn1)N1CCOCC1: 0
- CCCCc1c(O)nc(SCCN(C)C)n(-c2ccccc2)c1=O: 0
- Cc1cc(=O)oc2cc(OCC(=O)OCC(=O)N3CCc4ccccc43)ccc12: 3
- Cc1ccc(Cn2c(C(=O)NCCCN3CCOCC3)cc3sccc32)cc1: 2
- CC(=O)Nc1c(C(=O)C2CC2)oc2ccccc12: 3
- CCN(CC)S(=O)(=O)c1ccc(NC2c3ccccc3C(=O)N2CCN2CCOCC2)cc1 (stereo not given): 0
- CCSc1nc(C)nc2c1oc1ccccc12: 0
- CCc1nnc(NC(=O)c2cc3c(s2)CCCCC3)s1: 0
- Cc1nc2ccccn2c(=O)c1CCN1CCC(C(=O)c2ccc(F)cc2)CC1: 0
- Cc1ccc(S(=O)(=O)Cc2ccc(C(=O)NCc3ccc4c(c3)OCO4)o2)cc1: 0
- CCS(=O)(=O)N1CCC(C(=O)NC2CCCCC2)CC1: 0
- CCC(C)(NC(=O)CNC(C)=O)C(=O)NC1CCCCC1 (stereo not given): 0

* * *

The compounds listed here are annotated with their inhibition.
target: Pantothenate synthetase (Mycobacterium tuberculosis (strain ATCC 25618 / H37Rv)); assay: Coupled enzyme confirmation of inhibitors against recombinant Mtb PanC (AID 375); details: coupled enzyme assay; at 10 µM, stronger effect = higher value;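 also: 0% = full reaction with vehicle and 100% = no enzyme background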
assay-metric: inhibition (%)

• CC(=O)C1=C(C)OC(N)=C(C#N)C1c1ccncc1 (centres undefined) = 0
• Cc1nnc(N2C(=O)C(O)=C(C(=O)c3ccco3)C2c2ccc(F)cc2)s1 (centres undefined) = 0
• COc1cccc(CC(NC(C)=O)C(=O)NC2CCN(c3c4c(nc5ncnn35)CCC4)CC2)c1 (centres undefined) = 5
• COc1ccccc1C(=O)NCC(c1cccnc1)N(C)C (centres undefined) = 0
• CCCCC(c1nnnn1CS(=O)(=O)c1ccc(C)cc1)N1CCN(c2ccccc2)CC1 (centres undefined) = 0
• CCc1cc2c(=O)n(C(C)C(=O)OC3CCCCC3)cnc2s1 (centres undefined) = 0
• O=C(NCCCN1CCOCC1)C1CC(=O)N(CCc2ccccc2)C1 (centres undefined) = 4
• O=C(CCn1c(=O)c2sccc2n(CC(=O)NCc2ccco2)c1=O)NCc1ccccc1 = 3
• COc1ccc(-c2nc(CS(=O)CC(=O)NCc3ccccn3)c(C)o2)cc1 (centres undefined) = 0
• CCOC(=O)CSc1cn2c(n1)CCC2 = 3
• COc1cc(OC)cc(C(=O)N2c3ccc(F)cc3CCC2C)c1 (centres undefined) = 0
• CCn1cc(C(=O)NCC2COc3ccccc3O2)c2cc(OC)c(OC)cc2c1=O (centres undefined) = 11
• O=C(CSc1nc2ccccc2[nH]1)N1CCCCC1 = 0
• CCCC(=O)Nc1ncnc2c1ncn2[C@@H]1O[C@@H]2COP(=O)(O)O[C@H]2[C@H]1OC(=O)CCC = 0

* * *

# inhibition annotations
target: Pantothenate synthetase (Mycobacterium tuberculosis (strain ATCC 25618 / H37Rv)) (UniProt P9WIL5); assay: Coupled enzyme confirmation of inhibitors against recombinant Mtb PanC (AID 375); conditions: coupled enzyme assay; at 10 µM, stronger effect = higher value;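 also: 0% = full reaction with vehicle and 100% = no enzyme background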
assay-metric: inhibition (%)

• CN1CC(=O)N(CC(=O)NCCc2ccc(F)cc2)c2ccccc2C1=O = 0
• O=S(=O)(NCC1CCCO1)c1ccc(S(=O)(=O)N2CCc3ccccc3C2)cc1 (centres undefined) = 5
• Cc1ccc(NC(=O)CSc2nnc(CSc3nc(C)cc(C)n3)n2Cc2ccco2)c(C)c1 = 0
• CCOC(=O)CSc1nc2sc(C)c(C)c2c(=O)n1C = 0
